meta.source: patent US20080044360A1

# target or system: T1, rat collagen, acid soluble, type I, rat tail (Upstate 08-115) (rat, UniProt P02454 152-1207; P02466 86-1125)
# T1 construct: tissue extract, gelled and dried in wells; also called dried rat collagen
# T1 sequence (P02454 152-1207, chain 1 of 2): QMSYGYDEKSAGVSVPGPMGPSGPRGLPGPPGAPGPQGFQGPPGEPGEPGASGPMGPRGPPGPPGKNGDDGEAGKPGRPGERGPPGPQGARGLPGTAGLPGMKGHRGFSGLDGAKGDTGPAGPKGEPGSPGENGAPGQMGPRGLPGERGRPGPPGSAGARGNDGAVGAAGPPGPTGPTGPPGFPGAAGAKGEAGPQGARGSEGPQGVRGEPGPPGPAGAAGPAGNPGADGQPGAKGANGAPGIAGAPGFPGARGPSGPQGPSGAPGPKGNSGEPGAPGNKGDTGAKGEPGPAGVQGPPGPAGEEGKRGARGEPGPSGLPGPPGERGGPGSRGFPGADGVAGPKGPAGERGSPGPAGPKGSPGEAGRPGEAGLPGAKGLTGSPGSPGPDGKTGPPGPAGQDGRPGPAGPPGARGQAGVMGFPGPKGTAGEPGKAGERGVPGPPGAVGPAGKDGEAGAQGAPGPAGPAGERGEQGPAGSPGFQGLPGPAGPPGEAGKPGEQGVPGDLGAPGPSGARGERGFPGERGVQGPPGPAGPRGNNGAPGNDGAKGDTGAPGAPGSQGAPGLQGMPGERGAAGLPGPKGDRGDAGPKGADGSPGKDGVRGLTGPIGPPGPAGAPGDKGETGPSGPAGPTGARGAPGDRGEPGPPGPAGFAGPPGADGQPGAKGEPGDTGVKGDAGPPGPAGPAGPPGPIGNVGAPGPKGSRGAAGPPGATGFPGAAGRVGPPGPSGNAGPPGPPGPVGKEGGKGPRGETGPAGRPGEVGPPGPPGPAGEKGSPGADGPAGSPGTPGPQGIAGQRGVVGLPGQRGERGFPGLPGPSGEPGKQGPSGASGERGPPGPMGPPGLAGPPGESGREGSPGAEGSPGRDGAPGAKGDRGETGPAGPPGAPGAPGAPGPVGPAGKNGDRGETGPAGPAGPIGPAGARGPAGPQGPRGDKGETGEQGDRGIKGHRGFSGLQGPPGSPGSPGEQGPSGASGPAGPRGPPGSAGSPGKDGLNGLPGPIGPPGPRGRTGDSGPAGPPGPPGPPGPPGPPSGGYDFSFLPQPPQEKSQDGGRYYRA
# T1 sequence (P02466 86-1125, chain 2 of 2): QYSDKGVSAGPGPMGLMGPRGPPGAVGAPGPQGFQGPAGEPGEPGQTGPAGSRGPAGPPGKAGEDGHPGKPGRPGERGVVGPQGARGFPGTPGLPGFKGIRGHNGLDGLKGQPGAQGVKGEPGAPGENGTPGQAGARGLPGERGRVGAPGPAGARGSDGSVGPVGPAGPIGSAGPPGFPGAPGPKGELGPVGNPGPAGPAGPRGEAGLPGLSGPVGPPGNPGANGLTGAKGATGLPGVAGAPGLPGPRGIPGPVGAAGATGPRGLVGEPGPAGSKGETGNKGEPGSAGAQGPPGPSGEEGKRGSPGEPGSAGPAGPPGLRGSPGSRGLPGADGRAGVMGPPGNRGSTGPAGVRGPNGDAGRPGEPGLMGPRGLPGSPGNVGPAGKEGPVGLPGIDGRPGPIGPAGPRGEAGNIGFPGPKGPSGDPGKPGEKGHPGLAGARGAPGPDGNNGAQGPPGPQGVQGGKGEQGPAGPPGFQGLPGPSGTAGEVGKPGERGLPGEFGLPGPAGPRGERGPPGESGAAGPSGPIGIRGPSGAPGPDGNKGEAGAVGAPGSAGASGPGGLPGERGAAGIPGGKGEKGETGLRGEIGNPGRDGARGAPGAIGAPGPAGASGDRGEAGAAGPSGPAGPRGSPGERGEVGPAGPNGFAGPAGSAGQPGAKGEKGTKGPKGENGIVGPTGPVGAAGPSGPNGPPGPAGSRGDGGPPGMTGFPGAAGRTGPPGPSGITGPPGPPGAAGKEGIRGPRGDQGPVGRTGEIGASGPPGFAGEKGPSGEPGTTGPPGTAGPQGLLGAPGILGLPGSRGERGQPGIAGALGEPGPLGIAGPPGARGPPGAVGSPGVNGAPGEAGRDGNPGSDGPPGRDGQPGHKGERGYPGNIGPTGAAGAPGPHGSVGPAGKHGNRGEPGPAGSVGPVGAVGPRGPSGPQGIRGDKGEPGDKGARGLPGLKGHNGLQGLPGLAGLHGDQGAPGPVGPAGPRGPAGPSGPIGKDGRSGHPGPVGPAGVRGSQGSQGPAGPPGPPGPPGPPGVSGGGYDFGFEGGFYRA
# test name: dried collagen assay
Bridge positions count the residues as written; N and C are the ends. Square brackets hold non-standard residues; d marks the D form. Primed or numbered codes have the meaning given here. Side chains are listed from the residue outwards. Ends that are not written are not given here. Tyr(3-Cl) = N[C@@H](Cc1ccc(O)c(Cl)c1)C(=O)O; Gd^T(3) = GdDTPA attached via thiourea; Pen = CC(C)(S)[C@H](N)C(=O)O; Gd^T″ = GdDTPA-thiourea
attribute measured: % bound (%)

Incoming: What measured % bound goes with {Gd^T(3)}-GQWH[Pen]TTRFPHHYCLYG (disulfide 5-14; not fully specified (C-terminus)) [Compound ID 896] ?
Outgoing: 41

Incoming: Can you check {Gd^T″}-GK([Gly-Gd^T″])WHCTTYFPHH[Tyr(3-Cl)]CLYG (disulfide 5-14 (inferred)) [Compound ID 952] next?
Outgoing: 72

Incoming: Can you check {Gd^T″}-GQWNCTTLFPHHYCLYG (disulfide 5-14 (inferred)) [Compound ID 922] next?
Outgoing: 58
